// reported cAMP EC50, HEK-293 cells stably overexpressing human GLP-1 R per item
- Tgt: human GLP-1 receptor (human, UniProt P43220 24-463)
- Experiment Summary: cell-based or functional assay
Express the result in nM but write the number alone.

Q: Report measured cAMP EC50, HEK-293 cells stably overexpressing human GLP-1 R; entry is YXQGTXTSDYSIXLDKKAQXAFIEFLLETRPSSXHPPPS (Aib at 2; αMeF(2F) at 6; αMeL at 13; Lys 17 side chain AEEAc-AEEAc-γGlu-CO(CH2)18COOH; Aib at 20; Aib at 34; C-terminal amide (NH2)) [Compound 39]
Ans: 0.078
